- System: MS2 coat protein
- assay_info: apparent KD of MS2 coat protein; designed switch direction (-1 OFF switch, 1 ON switch): -1; higher = weaker reporter binding
- condition_context: input ligand: FMN 200 uM
property_name: apparent KD of MS2 coat protein (nM)
Write the value in nM as a bare number.

Hello, please tell me recorded apparent KD of MS2 coat protein for this one: ACAUGUUAUGUAGGAUAUUGGACACAUGAGGAUCACCCAUGUAACCGGAGGCUUUACUAUGAGUUCGAGAAGGGUAUGAACAUG [Ex NG2 #67] (Eterna round: R96, puzzle: Exclusion NG 2)
77.5

Name the recorded apparent KD of MS2 coat protein of the item GCCGGAUUUGUGAGGAUAUGCCUAUGGAUACAUAGGCAGAAGGCACAUGAGGAUCACCCAUGUACCUCACCGGC [JL-BMX4-4.23 Eli mod] (Eterna round: R97, puzzle: Brourd's mod of Exclusion 4) in your answer.
141

Specify reported apparent KD of MS2 coat protein for the sequence shown: AAAGUGUGAGGAUAUUAGUUGUACGUCAAUAGACGUAUAAGUGAGAAGGCACAUGAGGAUCACCCAUGUUCCUG [Omei Ex4 Mod of Mat's R95 mod of Omei v5] (Eterna round: R97, puzzle: Exclusion 4)
99.7

Please give measured apparent KD of MS2 coat protein of the following entry: AUCACGGAUGUAAGGAUAUACAAAACCAUAAGGUAGUAGAAGGUACAUGAGGAUCACCCAUGUGCAUAUGUUUA [BmEX4 C.14] (Eterna round: R97, puzzle: Brourd's mod of Exclusion 4)
18.5

Supply apparent KD of MS2 coat protein value. Item: AACACUGUAGGAUAUCAUGAACUGGACUUGAGGAUCACCCAAGUGUAUCCUGGAGUGCCGUGAGAAGGACGGAAAA [Erzalelaan] (Eterna round: R97, puzzle: Exclusion 5)
56.5

Quick one: give measured apparent KD of MS2 coat protein for UUGUUAUGUGUAGGAUAUGCGUAUUAUUAUUAUGCAGAAGGACAUGAGGAUCACCCAUGUGUAUUGUUAUUAUAUAUUAUAUAU [Title] (Eterna round: R96, puzzle: Exclusion NG 1)
32.1

Please supply the value of reported apparent KD of MS2 coat protein for the item GGUUGGCGAGGAUAUACAUGAGGAUCACCCAUGUGAGAGAAAAAAGUGAGCAAGAAAAGUAGAAGGCGCUGACG [salish99_ex3_r3_030] (Eterna round: R96, puzzle: Exclusion 3)
209

Give recorded apparent KD of MS2 coat protein. UUUUGGCAAGCGAGAUCCGACAUGAGGAUCACCCAUGUGCGGGCCCGAAAAGGGCCCGCGGUUGCUCGUCUUGUGUG [free energy optimized] (Eterna round: R97, puzzle: Sensor, turn-off variant 1)
15.7

Give the value of apparent KD of MS2 coat protein reported for the following: GAUCAUGCAGGAUAUACAGUUUCCAUGAAAACAUGGAACUCACAUGAGGAUCACCCAUGUAGAAGGGCAUGAUC [Omei Ex2 A26] (Eterna round: R97, puzzle: Exclusion 2)
25.9

Please report apparent KD of MS2 coat protein for the following sequence: AGCAUGCAGUAGGAUAUCGAUCCGCAAUAUGAACGAGAAGGGCUGACAUGAGGAUCACCCAUGUGCGUCCUAGG [jl-ex6-4.40 ViennaUCT mod] (Eterna round: R97, puzzle: Exclusion 6)
19.4

For the sequence GUGGGUUAUGUCAGGAUAUGGCCGUUAGGGCGACGCCAGAAGGGACAUGAGGAUCACCCAUGUCUCCGGGCAUC [BmEX4 C.10] (Eterna round: R97, puzzle: Brourd's mod of Exclusion 4) , report apparent KD of MS2 coat protein.
15.1

Return apparent KD of MS2 coat protein for the following sequence: CGCGGCGCGUAGGAUAUUGGGUCGGACGGCAAAUAAGAAGGACGCACAUGAGGAUCACCCAUGUCGAAAGCACA [Eternabot (Original) Solution 17] (Eterna round: R97, puzzle: Exclusion 6)
27.8

Supply recorded apparent KD of MS2 coat protein for UUUAGUUCAGGAUAUGUAGAUUUUAACAUGAGGAUCACCCAUGUAGAUCCUGAAUUAACUACAGAAGGGAACAUUA [Exclusion 5: 2:d] (Eterna round: R96, puzzle: Exclusion 5) here.
81.1

Specify measured apparent KD of MS2 coat protein for GGCACACAUGAGGAUCACCCAUGUCAGGAUAUGUGGCGAUCGUCGAAAGACGAUAGCCACAGAAGGGACAGGCC [Eli x1 4.25] (Eterna round: R97, puzzle: Exclusion 1) .
68.7

Please look at this sequence and report its apparent KD of MS2 coat protein: CAGCCCUGAGGAUAUACAUGAGGAUCACCCAUGUGAAGAACGGGAAACGAAACCCUCAGUAGAAGGCGGGUCAU [Eternabot (Original) Solution 14] (Eterna round: R97, puzzle: Exclusion 3)
131

Give apparent KD of MS2 coat protein for UGCAUGUAAGGAUAUGCAACCUGCGCUCAUUAGCAGGUCAAGCAGAAGGUACAUGAGGAUCACCCAUGUGUCCG [Tebisoma] (Eterna round: R96, puzzle: Exclusion 4)
462

Could you please provide reported apparent KD of MS2 coat protein for GCGUUCUGAGGAUAUACAUGAGGAUCACCCAUGUUGAGAAUUAGGUAUAAGGGAUUUUGUAGAAGGCAGAGUGC [JR_Ex3_Sub072] (Eterna round: R97, puzzle: Exclusion 3) ? Thanks!
228

Give apparent KD of MS2 coat protein for the following sequence: ACAAGCGCGAAAGUCUUAUACAUGAGGAUCACCCAUGUUCUCAAGGUCUUAUGUACUGACACGAUUACUCGUCUUAU [AK-miRNA-r3-4] (Eterna round: R97, puzzle: Sensor, turn-off variant 1)
117

Provide measured apparent KD of MS2 coat protein value, entry: UUUUUAUAUGAAGGAUAUACUUAACAUGAGGAUCACCCAUGUGGUGUUGUGAGUGAGUGAGUUUAGUAGAAGGUCAAUGAUUUU [JMF's solution 10] (Eterna round: R96, puzzle: Exclusion NG 2)
730

====

- System: K4 kissing-loop RNA reporter;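 also: bound reporter read as fluorescence of individual clusters on recovered sequencing chips by microscopy, with normalized cluster intensities fitted with a binding model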
- assay_info: apparent KD of K4 kissing-loop reporter; higher = weaker reporter binding
- condition_context: Eterna round: R107; input ligand: theophylline 20 uM
Give True when the value for apparent KD of K4 kissing-loop reporter is at least 200 nM. Give False when it is less.

Reported apparent KD of K4 kissing-loop reporter at or above 200 nM? CUCGUGGGUUUGAGAGGGCUUGUGGGAAGUGAGGAUAUUUAGGGAGAAAGAAGGCACUAUAGAAUAUAGUGAUGUUAUAUAUGGG [SSFMNA.Q]
False

Is it the case that AGAUAGGGCUGAAGGAGCGUCGGAGAAGAGAAGAAGAAAUCCAGUGAUGUUGGAUAAAUCCGACAGGUAGGUCGCAGUUUUAUGA [hbob_SS_Arginine_B_2t137] has apparent KD of K4 kissing-loop reporter reaching or exceeding 200 nM?
False

Given GCGCGUCAUGUCAGCGGUGACUACGUCGAUACCAGCAGGGAAACCUGCCCUUGGCAGCGACGCGCUGGAGUGAUGUUCCGACGGC [#2 Exclusion - Theophylline A Attempt #7 (HarryS)] , state whether its apparent KD of K4 kissing-loop reporter is at least 200 nM.
True

Hi, just wondering whether GGAUAGGACGGAGGAUAUGGUAGUGAUGUUACCAAACUGGUUAAACAUGUCAGAAAACUGGCAUGACCAGAAGGCCGUCCUAUCG [FmnBX 27 G10+C76] shows apparent KD of K4 kissing-loop reporter of 200 nM or higher.
False

Please check the record AGUGAUGUUCCUCCUCUUGGUCUUGGUGGGCGAGGACCGGUACGGCCGCCACUCGAUGUGGGAGUGAUGUUUCCAUAUGAUGUUU [Tryptophan A] and state if its apparent KD of K4 kissing-loop reporter is at or above 200 nM.
True

Exam item: decide whether the reported apparent KD of K4 kissing-loop reporter for UUAUAUACGAGUGAUGUUCGUUAUUUAUCAGAGGAUAUGCUUAAAUGCAGAAGGCUGUUUUUCUAUUUGAUAUUAAAUUUUAUAA [JR_Nu3_ExcFMNA_Sub027] is at least 200 nM.
False

Record GGACAACUAUGUCCCAUACAAACAAGAGAUACCAGCCAUCAUAGAGGCCCUUGGCAGCUCAUAUAAUCCAGUGAUGUUGGAUUUC [Atgebeus] ; criterion: apparent KD of K4 kissing-loop reporter no lower than 200 nM. Met?
False

Determine whether measured apparent KD of K4 kissing-loop reporter meets or exceeds 200 nM for UGAUACCAGACGGCCGCCACUAGACCAGUCAAAGACUGGAUGUGAUGUUUGAGGAGUGAUGUUCCUAGGACCGGGUCUGGUAUCU [TrypBX 4 #Palindromic #SwitchBubble #StaticStem]
False

Reported apparent KD of K4 kissing-loop reporter reaches at least 200 nM for GGAUAGGACAGAGGAUAUGGUAGUGAUGUUACCAAACUGGUUACUUUUGUCAGAAAACUGGCAUUUCCAGAAGGCUGUCCUAUCG [KL-XFMN-B12] ?
False

Kindly determine if apparent KD of K4 kissing-loop reporter recorded for AGUACGGACACGGCCGCCACUCAGAAGAAGACAGUAGUGAUGUUACUGAUGGUGAGAAUAAUAAAGAGGACCGGGUGUCGUGCAA [#05 K4 Tryptophan B Same State] is above or exactly 200 nM.
True

Does the reported apparent KD of K4 kissing-loop reporter for CGCUUUGCGUCCGGUAGUGAUGUUACCAAGCGAGGACCGGUACGGCCGCCACUCGAGUGACAGACGUACUGGUAUCACCCGCUUU fall at or above the 200 nM mark?
True

Dear colleague, could you confirm whether UUAGAGAUCUCAGGAUAUCAGUGAUGUUGGUUUCCAGAUCUGAGAUAGAAUUCUAUCUCAGAUCAAUGAGAAGGGAGAUCUCAUU [AK4.1 Exc FMN B] has apparent KD of K4 kissing-loop reporter at or above 200 nM?
False

Is reported apparent KD of K4 kissing-loop reporter greater than or equal to 200 nM here: AAUAAAAUCACGGCCGCCACUGAUGCUAAUAUUGGCAGUGAUGUUGCUAUGUAUAUUUUAUUUGACAGGACCGGGUGAAUAUUUA [#24 K4 Tryptophan B Exclusion]
True

API: above_or_equal(metric=apparent KD of K4 kissing-loop reporter, cutoff=200 nM) for item AAAACUCGGUAGUGAUGUUAUUGAGUGAACAAGGAUAUCUAUGAUAAGAGAAGGUGUAAGUUAAGCGUAUUUCGGCCUGUACAAU [theeternabot_sameState_KL_FMN_A_34]
False

// inclusive: apparent KD of K4 kissing-loop reporter at least 200 nM? input: ACGUGCACCAGUGAUGUUGGAAAAUAUGAAGGAGCGGGAGAAAACCCAGGUAGGUCGCAUAAUUGCACGAGCCACGAAAGUGGCA [#15 K4 Arginine A Same State]
False

Is reported apparent KD of K4 kissing-loop reporter greater than or equal to 200 nM here: AAAAUAAAUAGCAGUCACGGAGUGAUGUUCCGAGGACCGGUACGGCCGCCACUCGACCAGACAAAGUCUGGAGGCGGAGACUGCA [#SwitchBubble 20 #K4Early]
False

Check this sequence for apparent KD of K4 kissing-loop reporter at or above 200 nM: UGUGGAGAAUAUGAUACCAGCAGAGAGAGAGAGGAAGUAUAGUGAUGUUAUAUGAGAGAAUGCCCUUGGCAGCAUAAGAAGAAGG [SSTheophylB.C]
True

Is it the case that CUUAAGGAGUGUCGUGCCGGACACUGGGAAGGAGCGCAAUUCUUUGCAGGUAGGUCGCCCAGUGAUGUUGGGUCUCGCUGUCGAA [KL-XArg-A20] has apparent KD of K4 kissing-loop reporter reaching or exceeding 200 nM?
True

Is apparent KD of K4 kissing-loop reporter at least 200 nM? Consider AAGGUUGUGCAUGGGAGUGAUGUUCCCAAGCAGGAUAUCGCUCACGCGAGAAGGGCUAGCACAACCGCUCAAGAAACUUGAGCAA [Omei KL FMN A SS C v5]
False

Threshold query (apparent KD of K4 kissing-loop reporter >= 200 nM) on AGGAUCGAAGAUCCAGCAGUCAAGCAAUACCGAGGACCGGUACGGCCGCCACUCGGAGUGAUGUUCCGAAGACUGCAAAAUAAAA [#SwitchBubble 8]
True

# check: apparent KD of K4 kissing-loop reporter of GCGGGCCAGACGGCCGCCACUCCGGGCAGUGAUGUUGCGAAACUUCUACUAGAGUGAUGUUCUACGAGGACCGGGUCGGAACGCG [Exclusion Tryptophan B Gf 13] is greater than or equal to 200 nM
True

State whether the measured apparent KD of K4 kissing-loop reporter reaches 200 nM, counting equality as reaching it, for AAUAAUCUAGGUGAUACCAGCUCAACAUGAGUGAUGUUCGUGAGCUAAUGUAGAGUUGAGAGCCCUUGGCAGCACCUAGAUAAUA [KL-SSTheoB7]
True
